- systemTested: CBP (Homo sapiens (Human), UniProt Q92793)
- Sequence (Q92793 1085-1192): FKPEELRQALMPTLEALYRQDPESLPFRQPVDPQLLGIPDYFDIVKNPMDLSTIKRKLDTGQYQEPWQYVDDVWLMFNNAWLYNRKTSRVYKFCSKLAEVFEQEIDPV
- assayProtocol: HTRF biochemical assay for CBP activity (TR-FRET, bromodomain)
- Type: binding
- conditionDetails: geometric mean, 10-point 3-fold dilution 33 μM to 1.7 nM, read-out: BROMO IC50 TRF TB CBP (μM gmean)
attributeMeasured: IC50

Recorded IC50 (compound COC(=O)N1CCc2ccc3c(nc([C@@H]4CCC[C@@H](C(=O)O)C4)n3C(C)Cc3ccccc3)c2C1 (stereo in doubt) [Compound 99] ): 0.001 to 0.01 µM

Recorded IC50 (compound COC(=O)N1CCc2ccc3c(nc(-c4ccc(C(=O)O)cc4)n3[C@H](C)Cc3ccccc3)c2C1 [Compound 279] ): 0.01 to 0.1 µM

Recorded IC50 (compound COC(=O)N1CCc2ccc3c(nc(C4CCCCC4)n3[C@@H](C)Cc3cccc(C(=O)O)c3)c2C1 [Compound 102] ): 0.001 to 0.01 µM

Recorded IC50 (compound COC(=O)N1CCc2ccc3c(nc([C@H]4CCC[C@H](C(=O)O)C4)n3[C@H](C)Cc3ccccc3)c2C1 [Compound 344] ): 0.1 to 1 µM

Recorded IC50 (compound COC(=O)N1CCc2ccc3c(nc([C@@H]4CCC[C@@H](C(=O)O)C4)n3C(C)Cc3ccccc3)c2C1 (stereo in doubt) [Compound 298] ): 0.1 to 1 µM

Recorded IC50 (compound COC(=O)N1CCc2ccc3c(nc([C@H]4CC[C@H](C(=O)O)CC4)n3[C@H](C)Cc3c(C)cccc3C)c2C1 [Compound 318] ): 0.1 to 1 µM

Recorded IC50 (compound COC(=O)N1CCc2ccc3c(nc([C@H]4CC[C@H](C(=O)O)CC4)n3[C@@H](C)[C@@H](O)c3ccccc3)c2C1 [Compound 92] ): 0.001 to 0.01 µM

* * *

- systemTested: CBP (Homo sapiens (Human), UniProt Q92793)
- assayProtocol: HTRF biochemical assay for CBP activity (TR-FRET, bromodomain)
- Type: binding
- conditionDetails: geometric mean, 10-point 3-fold dilution 33 μM to 1.7 nM, read-out: BROMO IC50 TRF TB CBP (μM gmean)
attributeMeasured: IC50

Recorded IC50 (compound COC(=O)N1CCc2ccc3c(nc(C4CCCCC4)n3C[C@@H](C(=O)O)c3ccc(F)c(OC)c3)c2C1 ): 0.01 to 0.1 µM

Recorded IC50 (compound COC(=O)N1CCc2ccc3c(nc(-c4ccc(C(C)(C)C(=O)O)cc4)n3[C@H](C)Cn3cc(Cl)cn3)c2C1 ): 0.1 to 1 µM

Recorded IC50 (compound COC(=O)N1CCc2cc(CC#N)c3c(nc([C@H]4CC[C@H](C(=O)O)CC4)n3CCc3ccccc3)c2C1 ): 0.001 to 0.01 µM

Recorded IC50 (compound COC(=O)N1CCc2ccc3c(nc([C@H]4CC[C@H](C(=O)O)CC4)n3Cc3ccc(OC)c(F)c3)c2C1 ): 0.001 to 0.01 µM

Recorded IC50 (compound COC(=O)N1CCc2ccc3c(nc([C@H]4CC[C@H](C(=O)NS(C)(=O)=O)CC4)n3[C@@H](C)Cc3ccccc3)c2C1 (single isomer, unassigned) ): 0.001 to 0.01 µM

Recorded IC50 (compound COC(=O)N1CCc2ccc3c(nc([C@H]4CC[C@@H](C(=O)O)CC4)n3[C@@H](C)Cn3cc(Cl)cn3)c2C1 ): 0.01 to 0.1 µM
